# Target System: Isocitrate dehydrogenase [NADP] cytoplasmic (Homo sapiens)
# Sequence (O75874 whole entry): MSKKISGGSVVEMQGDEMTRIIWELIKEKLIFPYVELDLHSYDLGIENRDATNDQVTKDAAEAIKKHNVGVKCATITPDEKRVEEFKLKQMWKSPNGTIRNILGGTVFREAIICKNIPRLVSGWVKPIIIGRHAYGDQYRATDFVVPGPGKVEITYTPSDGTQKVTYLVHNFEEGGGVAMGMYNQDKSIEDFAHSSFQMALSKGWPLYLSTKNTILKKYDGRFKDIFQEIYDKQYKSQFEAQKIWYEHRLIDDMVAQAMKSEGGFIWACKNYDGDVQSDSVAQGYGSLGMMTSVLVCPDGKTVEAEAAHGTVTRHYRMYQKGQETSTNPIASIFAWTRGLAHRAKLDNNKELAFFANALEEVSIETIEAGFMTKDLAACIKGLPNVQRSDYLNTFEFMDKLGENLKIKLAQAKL
Quantity: Ki

Q) Field request: Ki | item: Cc1cc(-c2ccccc2)n(O)c(=O)c1
A) > 50 µM
